We begin with a simple list: items and their reported self-cleavage.
B1: Hairpin Ribozyme (parent)
chain: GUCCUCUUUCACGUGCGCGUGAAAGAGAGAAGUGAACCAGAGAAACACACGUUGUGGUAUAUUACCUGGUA

- Variants of: B1
- TEST DESCRIPTION: self-cleavage, relative activity (ratio to wild type); higher = more cleavage; co-transcriptional
No unit in the answer, only the number.

Examples with answers:
> print(dat)
   variant.notation  experimental.value
1         G34A A43C               0.229
2         G29A G69A               0.117
3         G34C C38A               0.563
4         C16G G57A              0.0803
5          C4U G17C               0.266

Name the recorded self-cleavage for G13C A26G .
0.492

Form field: reported self-cleavage of U9A C38A
0.146

What measured self-cleavage goes with G13C G27U ?
0.19

Cited source for all entries: the RNAGym collection of RNA variant scans (doi:10.7554/elife.80360)
